target-of-assay: Hypoxia-inducible factor 1-alpha (Homo sapiens) (UniProt Q16665)
Sequence (Q16665 whole entry, looked up): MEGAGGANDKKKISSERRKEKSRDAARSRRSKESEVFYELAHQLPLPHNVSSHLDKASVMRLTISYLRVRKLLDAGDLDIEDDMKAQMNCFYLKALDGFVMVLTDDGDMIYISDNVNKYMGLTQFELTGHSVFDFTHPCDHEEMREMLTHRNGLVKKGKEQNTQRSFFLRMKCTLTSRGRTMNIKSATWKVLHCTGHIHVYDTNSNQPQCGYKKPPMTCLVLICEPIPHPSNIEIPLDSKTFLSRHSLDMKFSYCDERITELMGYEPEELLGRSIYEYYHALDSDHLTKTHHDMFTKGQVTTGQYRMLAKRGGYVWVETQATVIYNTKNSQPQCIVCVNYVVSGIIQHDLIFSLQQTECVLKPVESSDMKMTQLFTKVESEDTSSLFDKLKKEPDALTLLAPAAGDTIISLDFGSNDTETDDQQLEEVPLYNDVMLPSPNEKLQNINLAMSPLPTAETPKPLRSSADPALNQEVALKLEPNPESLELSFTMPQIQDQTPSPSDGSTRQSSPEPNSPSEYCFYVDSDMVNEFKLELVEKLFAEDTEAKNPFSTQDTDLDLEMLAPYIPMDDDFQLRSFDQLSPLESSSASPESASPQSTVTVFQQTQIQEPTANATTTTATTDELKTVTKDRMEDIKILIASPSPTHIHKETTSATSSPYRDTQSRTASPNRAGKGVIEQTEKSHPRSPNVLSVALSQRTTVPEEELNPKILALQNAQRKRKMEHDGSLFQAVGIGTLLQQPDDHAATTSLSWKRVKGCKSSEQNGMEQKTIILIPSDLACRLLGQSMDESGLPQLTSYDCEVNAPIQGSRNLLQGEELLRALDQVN
protocol-summary: activators of HIF1alpha nuclear accumulation, confirmation, imaging, fluorescence, U2OS GFP-HIF1alpha (AID 434951)
measurement-conditions: U2OS GFP-HIF1alpha nuclear intensity, high-content imaging
Calls of active or inactive are those of the source.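 The calls were made as follows: active = a fitted half-maximal concentration EC50 for the rise in nuclear signal no higher than ten times the top dose tested; inconclusive = flat fit with activity between 30% and 70%, or unusable fit; inactive = EC50 beyond ten times the top dose.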
# valid calls are active, inactive; nothing else

For orientation, consider the following solved cases.
• CC(=O)NC(c1cccc([N+](=O)[O-])c1)c1ccc2cccnc2c1O (stereo not given) = active
• Cc1nc2nc3c(cn2n1)C(=O)CC(c1ccccc1)C3 (stereo not given) = inactive

Hi team, can someone confirm the assay call for Cc1ccc2nc(SCC(=O)Nc3ccc(Br)cc3)nc(=O)n2c1 ?
inactive

Same thing, different compound: CCN(CC)c1ccc(/C=N/NC(=O)c2cnccn2)c(O)c1
active

Lookup O=C(CN1CCC(C(=O)c2ccc(Cl)cc2)CC1)Nc1ccc2c(c1)OCCO2
inactive

meta.source: PubChem BioAssay AID434951
